Below: a set of entries, each annotated with reported T/C.
System: L1210 leukemia ip in BDF1 mice, survival T/C
Test: NCI In Vivo Anticancer Drug Screen. Data for tumor model L1210 Leukemia (intraperitoneal) in B6D2F1 (BDF1) mice
Conditions: endpoint: mean survival time; dose: 200.0 mg/kg/injection; schedule: Q01DX009 (ip); vehicle: Klucel (hydroxypropylcellulose) (HPC); higher = longer survival
Method: The antitumor activity of compounds was measured in mice bearing transplantable tumors. Survival or tumor size were measured and the results are expressed as the measurement made in the treated group (T) divided by the measurement made in the vehicle treated control group (C). The tumor model used in this assay is L1210 Leukemia (intraperitoneal) in B6D2F1 (BDF1) mice
Toxic doses and inconclusive results are not listed.

                                   compound  recordedmeasurement
0  CCCCC(CC)COC(=O)CC(O)C(=O)OCC(CC)CCCC (stereo unspecified)     100 % of control
1  Clc1ccc(C2=NC3=CC(Cl)C=CC3=CC2C2CO2)cc1 (stereo unspecified)      98 % of control
2                  CCN(CC)CCOC(=O)Cc1ccccc1     104 % of control
3         CCc1ccccc1NC(=O)Nc1ccc(Cl)c(Cl)c1      96 % of control
4  O=C(/C=C/C(=O)c1ccc(-c2ccccc2)cc1)c1ccc(-c2ccccc2)cc1      90 % of control

Kindly consider the entry below.
Problem: Hello, please tell me recorded T/C for this one: `CCOc1ccccc1NC(=S)NC1CCCCC1`
Solution: 100 % of control

###

Item-by-item account of T/C
system: L1210 leukemia ip in BDF1 mice, survival T/C; experiment: NCI In Vivo Anticancer Drug Screen. Data for tumor model L1210 Leukemia (intraperitoneal) in B6D2F1 (BDF1) mice; conditions: endpoint: mean survival time; dose: 200.0 mg/kg/injection; schedule: Q01DX001 (ip); vehicle: carboxymethylcellulose (CMC); higher = longer survival
Toxic doses and inconclusive results are not listed.

Solved cases (6 shown):
>>> df
                                   molecule  recordedmeasurement
0                       O=C(O)c1cc(Br)sc1Br      95 % of control
1         COC(=O)/C=C/C=C(c1ccccc1)c1ccccc1     102 % of control
2  O=C(O)C(CO)c1ccc(F)cc1 (stereo not drawn)     106 % of control
3    CC(CO)(CO)NC(=O)c1ccc([N+](=O)[O-])cc1     100 % of control
4   CCOc1ccccc1/C=N\NC(=S)Nc1ccc2cn[nH]c2c1     102 % of control
5  CC(C)(C)C1COP(=O)(Oc2ccccc2)OC1 (stereo not drawn)      94 % of control

Problem: Please indicate T/C recorded for OCCC1COc2ccccc2O1 (stereo not drawn)
Solution: 95 % of control

Problem: Return T/C for the following molecule: `COC(=O)c1ccc(O)c(C(=O)OC)c1`
Solution: 97 % of control

Problem: Report T/C for `COC1=C(NCc2ccccc2)C(=O)C(OC)=C(NCc2ccccc2)C1=O`
Solution: 107 % of control

Problem: Return value of T/C for input `N#CSCC(=O)c1ccc(Cl)cc1` , no commentary.
Solution: 100 % of control

Problem: Given `COc1ccc(CN2CCCN(Cc3ccc(OC)cc3OC)C2c2ccc(OC)cc2OC)c(OC)c1` , respond with its T/C.
Solution: 93 % of control

Problem: Answer with the recorded T/C of `O=c1[nH]c2ccccc2c2ccc(Cl)cc12` only.
Solution: 100 % of control

Problem: Return T/C for the following molecule: c1ccc2c(c1)c1c(c3ccccc32)CN2CCCC2C1 (stereo not drawn)
Solution: 92 % of control
